Biological target: GSK3β-HiBiT (GSK3β-HiBiT KI HEK293 cells) (Homo sapiens)
Construct: we generated endogenously tagged GSK3β-HiBiT knock-in (KI) HEK293 cells; endogenous in cells; host or cells: GSK3β-HiBiT knock-in HEK293 cells (CRISPR/Cas9, single-cell clone)
Sequence (P49841 whole entry): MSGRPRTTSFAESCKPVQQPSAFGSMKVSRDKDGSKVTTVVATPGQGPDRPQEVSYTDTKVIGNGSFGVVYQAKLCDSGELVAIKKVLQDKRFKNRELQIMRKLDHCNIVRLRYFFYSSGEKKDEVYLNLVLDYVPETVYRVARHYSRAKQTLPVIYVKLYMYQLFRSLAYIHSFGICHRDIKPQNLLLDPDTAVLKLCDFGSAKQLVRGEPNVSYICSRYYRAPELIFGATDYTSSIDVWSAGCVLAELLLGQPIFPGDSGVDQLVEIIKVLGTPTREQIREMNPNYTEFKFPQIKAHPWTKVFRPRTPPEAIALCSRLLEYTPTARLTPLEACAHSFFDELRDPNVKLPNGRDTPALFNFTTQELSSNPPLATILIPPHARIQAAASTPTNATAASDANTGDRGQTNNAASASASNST
Test: HiBiT lytic degradation assay / high-throughput screen, 24 h
Type: cell-based
Conditions: HEK293, crude mixture, stock assumed 10 mM, 24 h treatment
readoutKind: Dmax (%)
One number for each entry, in %.

// solved cases for Dmax follow
Cn1nc(N2CCC(=O)NC2=O)c2ccc(CN3CCN(Cc4ccc(-c5cn(-c6ccc(-c7cn8nccc(C(=O)Nc9cnccc9N9CCOCC9)c8n7)cc6)nn5)nc4)CC3)cc21 | 91
Cn1nc(N2CCC(=O)NC2=O)c2ccc(CN3CCN(CCCc4cn(-c5ccc(-c6cn7nccc(C(=O)Nc8cnccc8N8CCOCC8)c7n6)cc5)nn4)CC3)cc21 | 78
O=C1CCC(NC(=O)c2ccc(CN3CCN(CCCc4cn(-c5ccc(-c6cn7nccc(C(=O)Nc8cnccc8N8CCOCC8)c7n6)cc5)nn4)CC3)cn2)C(=O)N1 (stereo not shown) | 81

// next item, Dmax requested
Incoming: Please report the recorded Dmax for O=C1CCC(NC(=O)c2ccc(CN3CCN(Cc4ccc(-c5cn(-c6ccc(-c7cn8nccc(C(=O)Nc9cnccc9N9CCOCC9)c8n7)cc6)nn5)nc4)CC3)cn2)C(=O)N1 (stereo not shown) .
Outgoing: 89

---

Test: Intrinsic clearance (Cli), mouse liver microsomes
Assay type: in vitro ADME
Details: 0.5 µM, scaling factor 48 mg microsomal protein per g liver
Experimental: Test compound (0.5 µM) was incubated with female CD1 mouse, male rat Han Wistar and pooled human liver microsomes (Xenotech^TM; 0.5 mg/mL 50 mM potassium phosphate buffer, pH7.4) and the reaction started with addition of excess NADPH (8 mg/mL 50 mM potassium phosphate buffer, pH7.4). Immediately, at time zero, then at 3, 6, 9, 15 and 30 min an aliquot (50 µL) of the incubation mixture was removed and mixed with acetonitrile (100 uL) to stop the reaction. […]
Would you mind telling me the reported Scaled Microsomal Stability MuClint of each entry?

// solved cases for Scaled Microsomal Stability MuClint follow
Cn1nc(N2CCC(=O)NC2=O)c2ccc(CN3CCN(Cc4ccc(-c5cn(-c6ccc(-c7cn8nccc(C(=O)Nc9cnccc9N9CCOCC9)c8n7)cc6)nn5)nc4)CC3)cc21 | 2.4 ml/min/g liver
O=C1CCC(NC(=O)c2ccc(CN3CCN(Cc4ccc(-c5cn(-c6ccc(-c7cn8nccc(C(=O)Nc9cnccc9N9CCOCC9)c8n7)cc6)nn5)nc4)CC3)cn2)C(=O)N1 (stereo not shown) | < 0.53 ml/min/g liver
O=C1CCC(NC(=O)c2ccc(CN3CCN(CCCCCc4cn(-c5ccc(-c6cn7nccc(C(=O)Nc8cnccc8N8CCOCC8)c7n6)cc5)nn4)CC3)cc2F)C(=O)N1 (stereo not shown) | 15 ml/min/g liver

// next item, Scaled Microsomal Stability MuClint requested
Incoming: Please report the recorded Scaled Microsomal Stability MuClint for `Cn1nc(N2CCC(=O)NC2=O)c2ccc(CN3CCN(CCCc4cn(-c5ccc(-c6cn7nccc(C(=O)Nc8cnccc8N8CCOCC8)c7n6)cc5)nn4)CC3)cc21` .
Outgoing: 4.0 ml/min/g liver

---

Test: Brain binding, equilibrium dialysis
Assay type: in vitro ADME
Conditions: brain tissue homogenate; 10 μg/mL, 5 h dialysis; read-out: Brain Tissue Binding (Fu)
Would you mind telling me the reported fraction unbound at 5 h, 10 μg/mL of each entry?
Answers are plain numbers.

O=C1CCC(NC(=O)c2ccc(CN3CCN(Cc4ccc(-c5cn(-c6ccc(-c7cn8nccc(C(=O)Nc9cnccc9N9CCOCC9)c8n7)cc6)nn5)nc4)CC3)cn2)C(=O)N1 (centres unmarked) | 0.0029

Incoming: Please report the recorded fraction unbound at 5 h, 10 μg/mL for `Cn1nc(N2CCC(=O)NC2=O)c2ccc(CN3CCN(CCCc4cn(-c5ccc(-c6cn7nccc(C(=O)Nc8cnccc8N8CCOCC8)c7n6)cc5)nn4)CC3)cc21` .
Outgoing: 0.012

---

Experiment: Discrete i.v./p.o. KH1 (24) PK study and brain penetration
Assay type: in vivo, female Balb/c mice
Conditions: female, Balb/c, mouse, whole blood, intravenous; 0.37 mg/kg i.v., 2 hours; read-out: Mean Blood Concentration
readoutKind: concentration at 2 h (nM)
Numbers only, in nM.

Incoming: Please report the recorded concentration at 2 h for Cn1nc(N2CCC(=O)NC2=O)c2ccc(CN3CCN(Cc4ccc(-c5cn(-c6ccc(-c7cn8nccc(C(=O)Nc9cnccc9N9CCOCC9)c8n7)cc6)nn5)nc4)CC3)cc21 [compound 24] .
Outgoing: 88

---

Assay: Intrinsic clearance (Cli), rat liver microsomes
Type: in vitro ADME
Conditions: 0.5 µM, scaling factor 46 mg microsomal protein per g liver
Procedure: Test compound (0.5 µM) was incubated with female CD1 mouse, male rat Han Wistar and pooled human liver microsomes (Xenotech^TM; 0.5 mg/mL 50 mM potassium phosphate buffer, pH7.4) and the reaction started with addition of excess NADPH (8 mg/mL 50 mM potassium phosphate buffer, pH7.4). Immediately, at time zero, then at 3, 6, 9, 15 and 30 min an aliquot (50 µL) of the incubation mixture was removed and mixed with acetonitrile (100 uL) to stop the reaction. […]
readoutKind: Scaled Microsomal Stability RatClint (ml/min/g liver)
Answers are plain numbers, in ml/min/g liver.

O=C1CCC(NC(=O)c2ccc(CN3CCN(Cc4ccc(-c5cn(-c6ccc(-c7cn8nccc(C(=O)Nc9cnccc9N9CCOCC9)c8n7)cc6)nn5)nc4)CC3)cn2)C(=O)N1 (stereo not shown) | 0.71
O=C1CCC(NC(=O)c2ccc(CN3CCN(CCCCCc4cn(-c5ccc(-c6cn7nccc(C(=O)Nc8cnccc8N8CCOCC8)c7n6)cc5)nn4)CC3)cc2F)C(=O)N1 (stereo not shown) | 2.6

Parameters: items (list). Returns: Scaled Microsomal Stability RatClint for each item.
1. Cn1nc(N2CCC(=O)NC2=O)c2ccc(CN3CCN(Cc4ccc(-c5cn(-c6ccc(-c7cn8nccc(C(=O)Nc9cnccc9N9CCOCC9)c8n7)cc6)nn5)nc4)CC3)cc21
2. Cn1nc(N2CCC(=O)NC2=O)c2ccc(CN3CCN(CCCc4cn(-c5ccc(-c6cn7nccc(C(=O)Nc8cnccc8N8CCOCC8)c7n6)cc5)nn4)CC3)cc21

Outgoing:
1: 0.51; 2: 1.3

---

Test: KH1 (24) intravenous PK/PD study: blood and brain levels, observation
Format: in vivo, female Balb/c mice
Settings: female, Balb/c, mouse, brain / whole blood, intravenous; 5 mg/kg i.v., 4 hours; read-out: Brain:Blood Ratio
readoutKind: Kp at 4 h

Incoming: Please report the recorded Kp at 4 h for `Cn1nc(N2CCC(=O)NC2=O)c2ccc(CN3CCN(Cc4ccc(-c5cn(-c6ccc(-c7cn8nccc(C(=O)Nc9cnccc9N9CCOCC9)c8n7)cc6)nn5)nc4)CC3)cc21` .
Outgoing: 0.1

---

Experiment: Discrete i.v./p.o. KH1 (24) PK study and brain penetration
Assay type: in vivo, female Balb/c mice
Conditions: female, Balb/c, mouse, brain (unbound), intravenous, 0.37 mg/kg; predicted from brain concentration and measured free fraction; read-out: free concentration in brain
readoutKind: concentration at 2 h (nM)
One number for each entry, in nM.

Incoming: Please report the recorded concentration at 2 h for Cn1nc(N2CCC(=O)NC2=O)c2ccc(CN3CCN(Cc4ccc(-c5cn(-c6ccc(-c7cn8nccc(C(=O)Nc9cnccc9N9CCOCC9)c8n7)cc6)nn5)nc4)CC3)cc21 [compound 24] .
Outgoing: 0.02
